# test: Cmax in Sprague-Dawley rat at 5 mg/kg, iv
# Type: ADME, organism-based
# assay setup: in vivo
metric: Cmax

| compound | experimental result |
| --- | --- |
| CC(=O)N1CC[C@H]2CC[C@@H](C(=O)N[C@@H](CCC(N)=O)C(=O)N[C@@H](Cc3ccc(F)c(F)c3)C(=O)N3CCC(CCC#Cc4cccc5c4CN(C4CCC(=O)NC4=O)C5=O)CC3)N2C(=O)[C@@H](NC(=O)c2cc3cc(C(F)(F)P(=O)(O)O)ccc3s2)C1 (some centres not stated) | 15900 ng/mL |
| COC(=O)N1CC[C@H]2CC[C@@H](C(=O)N[C@@H](CCC(N)=O)C(=O)N[C@@H](Cc3ccc(F)c(F)c3)C(=O)N3CCC(CCC#Cc4cccc5c4CN(C4CCC(=O)NC4=O)C5=O)CC3)N2C(=O)[C@@H](NC(=O)c2cc3cc(C(F)(F)P(=O)(O)O)ccc3s2)C1 (some centres not stated) | 82600 ng/mL |

* * *

# test: Drug concentration in female CB17 SCID mouse plasma at 5 mg/kg, iv measured at 6 hrs by LC-MS/MS analysis
# Format: ADME, organism-based

| molecule | concentration at 6 h, ng/mL |
| --- | --- |
| COC(=O)N1CC[C@H]2CC[C@@H](C(=O)N[C@@H](CCC(N)=O)C(=O)N[C@@H](Cc3ccc(F)c(F)c3)C(=O)N3CCC(CCC#Cc4cccc5c4CN(C4CCC(=O)NC4=O)C5=O)CC3)N2C(=O)[C@@H](NC(=O)c2cc3cc(C(F)(F)P(=O)(O)O)ccc3s2)C1 (stereo partly specified) | 30300 |

* * *

# test: Clearance in ICR mouse at 5 mg/kg, iv
# Type: ADME, organism-based
# assay setup: in vivo
The compounds listed here are annotated with their clearance.
metric: clearance (mL/h/kg)

| compound | unit of measure | experimental result |
| --- | --- | --- |
| CC(=O)N1CC[C@H]2CC[C@@H](C(=O)N[C@@H](CCC(N)=O)C(=O)N[C@@H](Cc3ccc(F)c(F)c3)C(=O)N3CCC(CCC#Cc4cccc5c4CN(C4CCC(=O)NC4=O)C5=O)CC3)N2C(=O)[C@@H](NC(=O)c2cc3cc(C(F)(F)P(=O)(O)O)ccc3s2)C1 (some centres not stated) | mL/h/kg | 4.38 |
| COC(=O)N1CC[C@H]2CC[C@@H](C(=O)N[C@@H](CCC(N)=O)C(=O)N[C@@H](Cc3ccc(F)c(F)c3)C(=O)N3CCC(CCC#Cc4cccc5c4CN(C4CCC(=O)NC4=O)C5=O)CC3)N2C(=O)[C@@H](NC(=O)c2cc3cc(C(F)(F)P(=O)(O)O)ccc3s2)C1 (some centres not stated) | mL/h/kg | 3.06 |

* * *

# system under test: Protein cereblon/Signal transducer and activator of transcription 3 (Homo sapiens, UniProt P40763+Q96SW2)
# test: PROTAC activity at his-SUMO-tagged STAT3 (127 to 688 residues)/CRBN in human HeLa cells assessed as induction of STAT3 degradation incubated for 24 hrs by TECAN SPARK microplate reader analysis relative to control
# Assay type: cell-based
The compounds listed here are annotated with their Emax.
metric: Emax (%)

| compound | metric | experimental result |
| --- | --- | --- |
| CC(C)N1CC[C@H]2CC[C@@H](C(=O)N[C@@H](CCC(N)=O)C(=O)N[C@@H](Cc3ccc(F)c(F)c3)C(=O)N3CCC(CCC#Cc4cccc5c4CN(C4CCC(=O)NC4=O)C5=O)CC3)N2C(=O)[C@@H](NC(=O)c2cc3cc(C(F)(F)P(=O)(O)O)ccc3s2)C1 (some centres undefined) | Emax | 83 |
| CCN1CC[C@H]2CC[C@@H](C(=O)N[C@@H](CCC(N)=O)C(=O)N[C@@H](Cc3ccc(F)c(F)c3)C(=O)N3CCC(CCC#Cc4cccc5c4CN(C4CCC(=O)NC4=O)C5=O)CC3)N2C(=O)[C@@H](NC(=O)c2cc3cc(C(F)(F)P(=O)(O)O)ccc3s2)C1 (some centres undefined) | Emax | 92 |
| NC(=O)CC[C@H](NC(=O)[C@@H]1CC[C@@H]2CCN(C(=O)CCCCCC#Cc3cccc4c3CN(C3CCC(=O)NC3=O)C4=O)C[C@H](NC(=O)c3cc4cc(C(F)(F)P(=O)(O)O)ccc4[nH]3)C(=O)N21)C(=O)NC(c1ccccc1)c1ccccc1 (some centres undefined) | Emax | 86 |
| CC(=O)N1CC[C@H]2CC[C@@H](C(=O)N[C@@H](CCC(N)=O)C(=O)N[C@@H](Cc3ccc(F)c(F)c3)C(=O)N3CCC(CCC#Cc4cccc5c4CN(C4CCC(=O)NC4=O)C5=O)CC3)N2C(=O)[C@@H](NC(=O)c2cc3cc(C(F)(F)P(=O)(O)O)ccc3s2)C1 (some centres undefined) | Emax | 68 |

* * *

# test: Half life in Sprague-Dawley rat at 5 mg/kg, iv
# Type: ADME, organism-based
# assay setup: in vivo

| molecule | half-life (h) |
| --- | --- |
| CC(=O)N1CC[C@H]2CC[C@@H](C(=O)N[C@@H](CCC(N)=O)C(=O)N[C@@H](Cc3ccc(F)c(F)c3)C(=O)N3CCC(CCC#Cc4cccc5c4CN(C4CCC(=O)NC4=O)C5=O)CC3)N2C(=O)[C@@H](NC(=O)c2cc3cc(C(F)(F)P(=O)(O)O)ccc3s2)C1 (some centres not stated) | 1.3 |
| COC(=O)N1CC[C@H]2CC[C@@H](C(=O)N[C@@H](CCC(N)=O)C(=O)N[C@@H](Cc3ccc(F)c(F)c3)C(=O)N3CCC(CCC#Cc4cccc5c4CN(C4CCC(=O)NC4=O)C5=O)CC3)N2C(=O)[C@@H](NC(=O)c2cc3cc(C(F)(F)P(=O)(O)O)ccc3s2)C1 (some centres not stated) | 1 |

* * *

# system under test: Protein cereblon/Signal transducer and activator of transcription 3 (Homo sapiens, UniProt P40763+Q96SW2)
# test: PROTAC activity at his-SUMO-tagged STAT3 (127 to 688 residues)/CRBN in human HeLa cells assessed as induction of STAT3 degradation incubated for 24 hrs by TECAN SPARK microplate reader analysis
# Assay type: cell-based
The molecules listed here are annotated with their DC50.

| molecule | result qualifier | DC50 / nM |
| --- | --- | --- |
| CN1CC[C@H]2CC[C@@H](C(=O)N[C@@H](CCC(N)=O)C(=O)N[C@@H](Cc3ccc(F)cc3)C(=O)N3CCC(CCC#Cc4cccc5c4CN(C4CCC(=O)NC4=O)C5=O)CC3)N2C(=O)[C@@H](NC(=O)c2cc3cc(C(F)(F)P(=O)(O)O)ccc3s2)C1 (some centres not stated) | = | 90 |
| CN1CC[C@H]2CC[C@@H](C(=O)N[C@@H](CCC(N)=O)C(=O)N[C@@H](C(=O)NCCCCCCCCC#Cc3cccc4c3CN(C3CCC(=O)NC3=O)C4=O)c3ccccc3)N2C(=O)[C@@H](NC(=O)c2cc3cc(C(F)(F)P(=O)(O)O)ccc3s2)C1 (some centres not stated) | = | 800 |
| CN1CC[C@H]2CC[C@@H](C(=O)N[C@@H](CCC(N)=O)C(=O)N[C@@H](Cc3ccc(F)c(F)c3)C(=O)N3CCC(CCC#Cc4cccc5c4CN(C4CCC(=O)NC4=O)C5=O)CC3)N2C(=O)[C@@H](NC(=O)c2cc3cc(C(F)(F)P(=O)(O)O)ccc3s2)C1 (some centres not stated) | = | 220 |
| CN1CC[C@H]2CC[C@@H](C(=O)N[C@@H](CCC(N)=O)C(=O)N[C@H](C(=O)NCCCCCCCCCC#Cc3cccc4c3CN(C3CCC(=O)NC3=O)C4)c3ccccc3)N2C(=O)[C@@H](NC(=O)c2cc3cc(C(F)(F)P(=O)(O)O)ccc3s2)C1 (some centres not stated) | = | 300 |
| CN1CC[C@H]2CC[C@@H](C(=O)N[C@@H](CCC(N)=O)C(=O)N[C@@H](C(=O)NCCCCCCC#Cc3cccc4c3CN(C3CCC(=O)NC3=O)C4=O)c3ccccc3)N2C(=O)[C@@H](NC(=O)c2cc3cc(C(F)(F)P(=O)(O)O)ccc3s2)C1 (some centres not stated) | > | 5000 |
| COC(=O)N1CC[C@H]2CC[C@@H](C(=O)N[C@@H](CCC(N)=O)C(=O)N[C@@H](Cc3ccc(F)c(F)c3)C(=O)N3CCC(CCC#Cc4cccc5c4CN(C4CCC(=O)NC4=O)C5=O)CC3)N2C(=O)[C@@H](NC(=O)c2cc3cc(C(F)(F)P(=O)(O)O)ccc3s2)C1 (some centres not stated) | = | 500 |
| CN1CC[C@H]2CC[C@@H](C(=O)N[C@@H](CCC(N)=O)C(=O)NC3(C(=O)N4CCC(CCC#Cc5cccc6c5CN(C5CCC(=O)NC5=O)C6=O)CC4)CCCCC3)N2C(=O)[C@@H](NC(=O)c2cc3cc(C(F)(F)P(=O)(O)O)ccc3s2)C1 (some centres not stated) | > | 5000 |
| CN1CC[C@H]2CC[C@@H](C(=O)N[C@@H](CCC(N)=O)C(=O)N[C@H](CC(=O)N3CCC(C#Cc4cccc5c4CN(C4CCC(=O)NC4=O)C5)CC3)c3ccccc3)N2C(=O)[C@@H](NC(=O)c2cc3cc(C(F)(F)P(=O)(O)O)ccc3s2)C1 (some centres not stated) | > | 5000 |
| CN1CC[C@H]2CC[C@@H](C(=O)N[C@@H](CCC(N)=O)C(=O)N[C@@H](C(=O)N3CCC(CCC#Cc4cccc5c4CN(C4CCC(=O)NC4=O)C5=O)CC3)C(C)(C)C)N2C(=O)[C@@H](NC(=O)c2cc3cc(C(F)(F)P(=O)(O)O)ccc3s2)C1 (some centres not stated) | = | 1010 |
| NC(=O)CC[C@H](NC(=O)[C@@H]1CC[C@@H]2CCN(C(=O)CCCCCC#Cc3cccc4c3CN(C3CCC(=O)NC3=O)C4=O)C[C@H](NC(=O)c3cc4cc(C(F)(F)P(=O)(O)O)ccc4[nH]3)C(=O)N21)C(=O)NC(c1ccccc1)c1ccccc1 (some centres not stated) | = | 400 |
| CN1CC[C@H]2CC[C@@H](C(=O)N[C@@H](CCC(N)=O)C(=O)N[C@H](C(=O)N3CCC(CCC#Cc4cccc5c4CN(C4CCC(=O)NC4=O)C5=O)CC3)c3ccccc3)N2C(=O)[C@@H](NC(=O)c2cc3cc(C(F)(F)P(=O)(O)O)ccc3s2)C1 (some centres not stated) | = | 300 |
| CCN1CC[C@H]2CC[C@@H](C(=O)N[C@@H](CCC(N)=O)C(=O)N[C@@H](Cc3ccc(F)c(F)c3)C(=O)N3CCC(CCC#Cc4cccc5c4CN(C4CCC(=O)NC4=O)C5=O)CC3)N2C(=O)[C@@H](NC(=O)c2cc3cc(C(F)(F)P(=O)(O)O)ccc3s2)C1 (some centres not stated) | = | 200 |
| NC(=O)CC[C@H](NC(=O)[C@@H]1CC[C@@H]2CCNC[C@H](NC(=O)c3cc4cc(C(F)(F)P(=O)(O)O)ccc4s3)C(=O)N21)C(=O)N[C@@H](Cc1ccc(F)c(F)c1)C(=O)N1CCC(CCC#Cc2cccc3c2CN(C2CCC(=O)NC2=O)C3=O)CC1 (some centres not stated) | = | 1200 |
| NC(=O)CC[C@H](NC(=O)[C@@H]1CC[C@@H]2CCN(C(=O)CCCCCC#Cc3cccc4c3CN(C3CCC(=O)NC3=O)C4=O)C[C@H](NC(=O)c3cc4cc(C(=O)P(=O)(O)O)ccc4[nH]3)C(=O)N21)C(=O)NC(c1ccccc1)c1ccccc1 (some centres not stated) | = | 400 |
| CN1CC[C@H]2CC[C@@H](C(=O)N[C@@H](CCC(N)=O)C(=O)N[C@@H](Cc3ccccc3)C(=O)N3CCC(CCC#Cc4cccc5c4CN(C4CCC(=O)NC4=O)C5=O)CC3)N2C(=O)[C@@H](NC(=O)c2cc3cc(C(F)(F)P(=O)(O)O)ccc3s2)C1 (some centres not stated) | = | 130 |
| CN1CC[C@H]2CC[C@@H](C(=O)N[C@@H](CCC(N)=O)C(=O)N[C@H](C(=O)NCCCC#Cc3cccc4c3CN(C3CCC(=O)NC3=O)C4=O)c3ccccc3)N2C(=O)[C@@H](NC(=O)c2cc3cc(C(F)(F)P(=O)(O)O)ccc3s2)C1 (some centres not stated) | > | 5000 |
| CN1CC[C@H]2CC[C@@H](C(=O)N[C@@H](CCC(N)=O)C(=O)N[C@H](C(=O)NCCCCCCCC#Cc3cccc4c3CN(C3CCC(=O)NC3=O)C4=O)c3ccccc3)N2C(=O)[C@@H](NC(=O)c2cc3cc(C(F)(F)P(=O)(O)O)ccc3s2)C1 (some centres not stated) | = | 1500 |

Origin of measurements: ChEMBL document CHEMBL6092220
